Values compiled from ChEMBL document CHEMBL1152887.

Experiment: Half life in Wistar rat at 1 mg/kg, iv
Assay type: ADME, organism-based
Set-up: dose 1 mg/kg, route intravenous
Conditions: in vivo
PROPERTY NAME: half-life (min)
State just the number; it will be interpreted in min.

get_value(item= Cc1csc(NC(=O)c2cc(Sc3nncn3C)ccc2N)n1 , readout=half-life) returns 54

* * *

Target: Hexokinase-4 (Homo sapiens, UniProt P35557)
Label key: criterion met means EC50 under 2000 nM; criterion not met means EC50 of 2000 nM or more.

Input line: Strictly below 2000 nM in EC50? Cn1cnnc1Sc1ccc(N)c(C(=O)Nc2ccccn2)c1
Output line: criterion met

* * *

Molecular target: UniProt:P35557
pEC50: −log10 of the molar value.
Please use condition met whenever pEC50 is not below 6, and condition not met whenever it is.

- CHEM SMILES: "Cn1cnnc1Sc1ccc(N)c(C(=O)Nc2ncns2)c1"
  ASSIGNED CLASS: "condition met"

Input line: // inclusive: pEC50 at least 6? input: Cc1csc(NC(=O)c2cc(Sc3ccccc3)ccc2N)n1
Output line: condition met

* * *

Assay: Volume of distribution in Wistar rat at 1 mg/kg, iv and 3 mg/kg, po
Format: ADME, organism-based
Settings: in vivo
PROPERTY NAME: Vd (L/kg)
State just the number; it will be interpreted in L/kg.

get_value(item= Cc1csc(NC(=O)c2cc(Sc3nncn3C)ccc2N)n1 , readout=Vd) returns 0.4

* * *

Target: Hexokinase-4 (Homo sapiens)
Sequence (P35557 whole entry): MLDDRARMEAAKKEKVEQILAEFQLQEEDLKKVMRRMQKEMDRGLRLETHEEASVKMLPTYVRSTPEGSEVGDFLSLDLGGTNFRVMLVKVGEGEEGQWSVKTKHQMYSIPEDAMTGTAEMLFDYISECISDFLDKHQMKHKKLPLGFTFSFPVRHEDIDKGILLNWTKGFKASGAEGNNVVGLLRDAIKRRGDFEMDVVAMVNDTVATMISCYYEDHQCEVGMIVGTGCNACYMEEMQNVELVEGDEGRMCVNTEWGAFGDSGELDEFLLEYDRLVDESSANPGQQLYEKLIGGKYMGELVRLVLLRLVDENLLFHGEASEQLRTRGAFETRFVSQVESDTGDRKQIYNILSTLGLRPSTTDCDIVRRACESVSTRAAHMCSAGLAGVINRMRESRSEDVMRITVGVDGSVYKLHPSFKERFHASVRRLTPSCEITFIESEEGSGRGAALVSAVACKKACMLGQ
pEC50 overview
FYI, pEC50 means -log10 of a concentration in mol per litre.

- CHEM SMILES: "CCOc1ccc(N)c(C(=O)Nc2nc(C)cs2)c1"
  pEC50: 5.77
- CHEM SMILES: "Cc1csc(NC(=O)c2cc(Sc3ncc[nH]3)ccc2N)n1"
  pEC50: 6.42
- CHEM SMILES: "Cc1csc(NC(=O)c2cc(Oc3ccc(F)cc3)ccc2N)n1"
  pEC50: 6.40

Okay, next one:
get_value(item= Cc1nsc(NC(=O)c2cc(Sc3nncn3C)ccc2N)n1 , readout=pEC50) returns 6.74

* * *

Target: Hexokinase-4 (Homo sapiens, UniProt P35557)
Sequence (P35557 whole entry): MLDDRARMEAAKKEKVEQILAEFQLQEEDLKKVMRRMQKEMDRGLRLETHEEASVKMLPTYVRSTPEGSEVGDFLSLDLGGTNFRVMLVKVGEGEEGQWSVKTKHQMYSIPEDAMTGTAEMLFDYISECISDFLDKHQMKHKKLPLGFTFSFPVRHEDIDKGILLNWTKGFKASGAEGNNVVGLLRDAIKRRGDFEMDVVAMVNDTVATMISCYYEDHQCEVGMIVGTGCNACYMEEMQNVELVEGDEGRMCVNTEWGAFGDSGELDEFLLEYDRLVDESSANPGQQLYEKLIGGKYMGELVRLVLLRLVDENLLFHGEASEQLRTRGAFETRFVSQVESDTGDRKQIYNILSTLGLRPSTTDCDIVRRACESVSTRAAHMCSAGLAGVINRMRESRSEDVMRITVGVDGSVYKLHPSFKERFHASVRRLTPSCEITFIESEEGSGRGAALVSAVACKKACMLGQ
Label key: y means EC50 under 2000 nM; n means EC50 of 2000 nM or more.

Study these solved cases before continuing.
- CHEM SMILES: "Cc1csc(NC(=O)c2cccc(Sc3nncn3C)c2)n1"
  ASSIGNED CLASS: "n"
- CHEM SMILES: "Cn1cnnc1Sc1ccc(N)c(C(=O)Nc2ccncc2)c1"
  ASSIGNED CLASS: "n"
- CHEM SMILES: "Cc1csc(NC(=O)c2ccc(Cl)cc2N)n1"
  ASSIGNED CLASS: "n"
- CHEM SMILES: "Cc1csc(NC(=O)c2cc(Oc3ccccc3F)ccc2N)n1"
  ASSIGNED CLASS: "y"
- CHEM SMILES: "Cc1nsc(NC(=O)c2cc(Sc3nncn3C)ccc2N)n1"
  ASSIGNED CLASS: "y"
- CHEM SMILES: "Nc1ccc(Cl)cc1C(=O)Nc1nccs1"
  ASSIGNED CLASS: "n"

Input line: Strictly below 2000 nM in EC50? Cc1csc(NC(=O)c2cc(Oc3cccc(F)c3)ccc2N)n1
Output line: y

Input line: Strictly below 2000 nM in EC50? Cc1csc(NC(=O)c2cc(Cl)ccc2N)n1
Output line: n

Input line: Strictly below 2000 nM in EC50? Cn1cnnc1Sc1ccc(N)c(C(=O)Nc2ccccc2)c1
Output line: n

* * *

Reported values: EC50 for Hexokinase-4 (Homo sapiens), one per item.
State just the number; it will be interpreted in µM.

- CHEM SMILES: "Cc1csc(NC(=O)c2cccc(Sc3nncn3C)c2)n1"
  U: "µM"
  EC50: 1.5
- CHEM SMILES: "Cc1csc(NC(=O)c2cc(Sc3nnc[nH]3)ccc2N)n1"
  U: "µM"
  EC50: 0.54

get_value(item= Nc1ccc(Cl)cc1C(=O)Nc1nccs1 , readout=EC50) returns 2.6

* * *

Target: Hexokinase-4 (Homo sapiens, UniProt P35557)
pEC50: −log10 of the molar value.
Please use t whenever pEC50 is not below 6, and f whenever it is.

Study these solved cases before continuing.
- CHEM SMILES: "Cc1csc(NC(=O)c2cc(Oc3ccc(F)cc3)ccc2N)n1"
  ASSIGNED CLASS: "f"
- CHEM SMILES: "COc1ccccc1Oc1ccc(N)c(C(=O)Nc2nc(C)cs2)c1"
  ASSIGNED CLASS: "t"
- CHEM SMILES: "Cn1cnnc1Sc1ccc(N)c(C(=O)Nc2cccnc2)c1"
  ASSIGNED CLASS: "f"
- CHEM SMILES: "Cc1csc(NC(=O)c2cc(Sc3nncn3C)ccc2[N+](=O)[O-])n1"
  ASSIGNED CLASS: "f"
- CHEM SMILES: "Cc1csc(NC(=O)c2cc(Sc3nnc[nH]3)ccc2N)n1"
  ASSIGNED CLASS: "f"
- CHEM SMILES: "Cc1csc(NC(=O)c2cc(Oc3ccccc3S(C)(=O)=O)ccc2N)n1"
  ASSIGNED CLASS: "t"
- CHEM SMILES: "Cc1cnc(NC(=O)c2cc(Sc3nncn3C)ccc2N)s1"
  ASSIGNED CLASS: "t"
- CHEM SMILES: "Cn1cnnc1Sc1ccc(N)c(C(=O)Nc2nc(C(F)(F)F)cs2)c1"
  ASSIGNED CLASS: "f"

Input line: // inclusive: pEC50 at least 6? input: Cn1cnnc1Sc1ccc(N)c(C(=O)Nc2nc(CO)cs2)c1
Output line: f

Input line: // inclusive: pEC50 at least 6? input: Nc1ccccc1C(=O)Nc1nccs1
Output line: f

Input line: // inclusive: pEC50 at least 6? input: Cc1csc(NC(=O)c2cc(Sc3ncc[nH]3)ccc2N)n1
Output line: f

Input line: // inclusive: pEC50 at least 6? input: Cc1csc(NC(=O)c2cccc(Cl)c2)n1
Output line: f

* * *

EC50 overview
Target: Hexokinase-4 (Homo sapiens)
State just the number; it will be interpreted in nM.

# annotated cases, reported EC50 shown
- CHEM SMILES: "Cc1csc(NC(=O)c2cc(Sc3ccccc3)ccc2N)n1"
  U: "nM"
  EC50: 920
- CHEM SMILES: "Cc1csc(NC(=O)c2cc(Oc3ccccc3)ccc2N)n1"
  U: "nM"
  EC50: 700

Form: item CCSc1ccc(N)c(C(=O)Nc2nc(C)cs2)c1 ; test system Hexokinase-4 (Homo sapiens); EC50: 780
